These entries and their values trace back to paper PMC12136788.

- ASSAYED_SYSTEM: T1, UNK ZnF1-3 (human, UniProt Q9C0B0 31-174)
- T1 sequence: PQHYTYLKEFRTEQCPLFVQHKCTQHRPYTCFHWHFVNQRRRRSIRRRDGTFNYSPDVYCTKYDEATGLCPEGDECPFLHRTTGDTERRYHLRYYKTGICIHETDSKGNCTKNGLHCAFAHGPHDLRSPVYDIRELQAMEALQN
- PROCEDURE_TEXT: nsRBNS (natural sequence RNA bind-n-seq); RBNS binding buffer (assumed for nsRBNS): 25 mM Tris pH 7.5, 150 mM KCl, 3 mM MgCl2, 0.01% Triton X-100, 500 ug/ml BSA, 20 U/ml SUPERase-In, 4 C; UNK is unkempt and MSI1 is Musashi-1; names of the RNAs are library labels; protein concentration not given here; high values mean tight binding
Whole data set: some 24,000 sequences, median “enrichment r” near 0.99, cut for the highest 2% near 3.7. Only a selection was taken, and the highest values are over-represented in it overall.
ASSAY_READOUT: binding signal (enrichment R)
Write down the numeric answer in enrichment R and omit the unit.

The following binders have reported results that may help.
chr14:23562722:23562723:-_ENSG00000100813_ENST00000605057|hu_mus|FALSE|FALSE (ssRNA) RNA: GGGAGUUCUACAGUCCGACGAUCUGGCUCAUUUCCUCCCCGAUCUGUGAAUUUGGCUGGAAUGCAGCAUGGGGUGUUGAGUGUUUUUGUAAAUUUUCUAGCAUUAGAGCCCCUUUGAGCCGCUUGACCAGGGCACUCUUCUGCCAACAGAGGAUUGAGCAUCA ... 0.906
chr14:102449733:102449734:+_ENSG00000197102_ENST00000360184|hu_mus|FALSE|FALSE (ssRNA) RNA: GGGAGUUCUACAGUCCGACGAUCCAGCACCUGGAGCUUCUCGUACUCGUCGUCCCACGUCUGGAAGACUUCGAAGCAAGCCACCAUGACCUUUUCAAACUCUUCAUAGGCUACAUGCAUCAACUUCCGAGUGCCCAAGACCUUCAACAGAGGAUUGAGCAUCA ... 1.2

Okay, next one:
Input: Identify measured binding signal associated with chr9:91093546:91093547:+_ENSG00000106723_ENST00000375859|hu_mus|motif|central (ssRNA) RNA: GGGAGUUCUACAGUCCGACGAUCUACAUCAUAAUUAUAAAAAUUACUUACAGAAUUAACAGUUGUACUGUGUAUACUUCGGAAUGCAGAGAACAGGGAACCGUCUACACGUUGUAUAAAAUAAAAUUAAAAUUAAAAAUGAAUCAACAGAGGAUUGAGCAUCA
Output: 4.68
